Source of measurements: paper PMC5540273

Below: a set of entries, each annotated with reported %Inh.
tested on: EPHB1; conditions: concentration: 1 μM, replicates: in singlicate; n = 1;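 also: KINOMEscan kinase panel screen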
Readout Kind: %Inh

Molecule	Readout Kind	Measured Value
COc1cc2ncn(-c3cc(OCc4ccncc4Br)c(C(N)=O)s3)c2cc1OC [GW854278]	%Inh	0%
COc1cc(Nc2nccc(N3CCC(NC(=O)C4COc5ccccc5O4)C3)n2)cc(OC)c1OC (stereo not drawn) [GSK1379761]	%Inh	6%
COc1ccc(-c2cc3c(C)nc(N)nc3n([C@H]3CC[C@H](O)CC3)c2=O)cn1	%Inh	0%
FC(F)(F)c1ccc(-c2ncn(CCCN3CCOCC3)c2-c2ccncc2)cc1 [SB-217780]	%Inh	0%
COc1cc2nccc(Nc3ccc(OCc4ccc(NC(C)=O)cc4)cc3)c2cc1OC.Cl [GW440135]	%Inh	6%
OCCCNc1nccc(-c2c(-c3cccc(C(F)(F)F)c3)nn3cc(C(F)(F)F)ccc23)n1 [GW630813]	%Inh	0%
COc1cc(OC)cc(-c2cc3cnc(N)nc3nc2NC(=O)NC(C)(C)C)c1	%Inh	0%
O=C(NCc1cccs1)c1cc(C(=O)c2c(Cl)cccc2Cl)c[nH]1 [GW823670]	%Inh	4%
CCC(=O)c1c(-c2ccccc2)c2cc(Cl)ccc2c(=O)n1Cc1ccc(C(=O)O)cc1	%Inh	9%

====

test system: ANKK1; conditions: concentration: 1 μM, replicates: in singlicate; n = 1
Readout Kind: %Inh (%)

Compound	Test System	Measured Value
CC(C)(C)c1ccc(C(=O)Nc2cn3cc(-c4ccccc4)ccc3n2)cc1	ANKK1	0
CCC(=O)c1c(-c2ccccc2)c2cc(Cl)ccc2c(=O)n1Cc1cc(S(C)(=O)=O)n(CCC(C)(C)O)n1	ANKK1	8
Nc1ncnc2c1ncn2-c1cccc(F)c1 [SKF-97560]	ANKK1	17

====

test system: PIK3CB; details: concentration: 1 μM, replicates: in singlicate; n = 1
Output Y for records whose %Inh is lower than 10%, N for records at or above 10%.

Molecule	Test System	Category
COc1ccc(Nc2nccc(N3CCC(NS(=O)(=O)c4ccc(NC(C)=O)cc4)C3)n2)cc1 (stereo not drawn) [GSK1379729]	PIK3CB	Y
CC(C)(C)c1ccc(C(=O)Nc2cn3cc(-c4ccccc4)ccc3n2)cc1	PIK3CB	N
COc1ccc(-c2coc3ccc(-c4nnc(SCc5cccc(C#N)c5)o4)cc23)cc1	PIK3CB	N
CCc1ccc(-c2ccc3c(c2)-c2nn(C)cc2S(=O)(=O)N3C)cc1	PIK3CB	Y
CCC(=O)c1c(-c2ccccc2)c2cc(Cl)ccc2c(=O)n1Cc1cc(S(C)(=O)=O)n(CC(N)=O)n1	PIK3CB	Y
Cc1ccc(Oc2ccc(Nc3ncnc4cc[nH]c34)cc2C)cn1	PIK3CB	N
COc1ccc(-c2cc3c(C)nc(N)nc3n([C@H]3CC[C@H](OCCO)CC3)c2=O)cn1	PIK3CB	N
Cn1c(=O)c(F)c(Nc2ccc(I)cc2F)c2c(=O)n(OC[C@H](O)CO)cnc21	PIK3CB	Y
Cc1c(Cn2c(C)nn3c(=O)cc(N4CCO[C@H](C)C4)nc23)cccc1C(F)(F)F [GSK2373690]	PIK3CB	N

====

tested on: BIKE; construct: gene BMP2K; conditions: concentration: 1 μM, replicates: in singlicate; n = 1
%Inh by entry:

Molecular String	%Inh
Cc1nn2c(=O)cc(N3CCOCC3)nc2n1Cc1cccc(Cl)c1Cl	2%
COC(=O)c1c(-c2ccccc2)c2cc(Br)ccc2c(=O)n1Cc1ccc(NC(=O)CCC(=O)O)cc1	0%
COc1cccc(C2=C(Nc3cccc(C(=O)O)c3)C(=O)NC2=O)c1	15%
O=C(Nc1ccc2c(c1)OCO2)NC1CCN(c2ccnc(NCc3ccc(F)cc3)n2)CC1	7%
CCC(=O)c1c(-c2ccccc2)c2cc(Cl)ccc2c(=O)n1Cc1cc(S(C)(=O)=O)n(CC(N)=O)n1	0%
